Would you mind telling me the reported protein stability index of each entry?
- Test system: Saccharomyces cerevisiae
- Assay details: protein stability index of tFT-peptide fusion (C-terminal peptide) (PSI (0-1 scale)); higher = more stable (slower turnover);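 note: PSI is a weighted mean of sequencing reads over stability bins, variants kept only with over 10 reads, mCherry proximal and sfGFP distal, peptide attached via GGGS linker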
- Run parameters: genetic background: wild type; temperature: 30 C
Numbers only.

Look over these answered cases.
DVVRWQRVRNYV    0.454
GLLLLGIRLKWG    0.269
LCWQALSLGVMC    0.526
ASFFTARMYIIF    0.676
RKEEEGNYWNRI    0.651

Could you report protein stability index for every entry in the following list?
1. MLLFVSCCVFLF
2. PPSTNRDGRKRT
3. PPPARSRCTHPT
4. SSFLLGCAFPLG
5. SVSQTSILDSRL
6. SSVSRIYTPSSL
7. GVVGTISLFVLD
8. LAAGPSERTART

1. 0.206
2. 0.644
3. 0.706
4. 0.688
5. 0.71
6. 0.677
7. 0.61
8. 0.685

###

- System: Saccharomyces cerevisiae
- Assay details: protein stability index of tFT-peptide fusion (C-terminal peptide) (PSI (0-1 scale)); higher = more stable (slower turnover)
- Run parameters: genetic background: cdc53-1; temperature: 37 C
protein stability index vs 0.5: at or above is Fulfilled, below is Not fulfilled.

Worked examples follow.
CFVLVVCIPVMV    Not fulfilled
VIVQSWEIIRLN    Fulfilled
GGYGAGLRSPLF    Fulfilled
FITFLVFVGFFL    Not fulfilled
FSLLTWPFVFLV    Not fulfilled
VSLIYKTIKNRV    Fulfilled

Continue with the next sequence.
Reported protein stability index at or above 0.5? GFSVFSHSVWVR
Not fulfilled

###

- Tested on: Saccharomyces cerevisiae
- Assay details: protein stability index of tFT-peptide fusion (C-terminal peptide) (PSI (0-1 scale)); higher = more stable (slower turnover)
- Run parameters: genetic background: wild type; temperature: 30 C
Measurement name: protein stability index
Give bare numbers.

VFSFGLLFQVCR    0.452
GELPGELYKFWL    0.671
RVWTTVFIIRAT    0.229
ASLVGGVLLVVV    0.352
YWGFHPCCAFGY    0.659
WFLVFLRVGDGP    0.378

Fill in protein stability index for each of the 2 sequences listed.
1. VPGCLGRFLFFL
2. DLRGLGRFRISH

0.218
0.503

###

- Test system: Saccharomyces cerevisiae
- Assay details: protein stability index of tFT-peptide fusion (C-terminal peptide) (PSI (0-1 scale)); higher = more stable (slower turnover)
- Run parameters: genetic background: das1 deletion; temperature: 37 C
The threshold is inclusive: protein stability index of exactly 0.5 counts as yes; values below receive no.

MALAVRVVRCGA    no
FCFLLLSWAFWV    no
CGWFVSVGWRLG    yes
PPTPYPRFIFSF    yes
KKKKRVKIQKKN    yes
VVVFRWTCWLLV    no

# evaluate next
Say whether GYSMPVSFFFAL shows protein stability index of 0.5 or more.
yes

###

Please provide measured protein stability index for the entries that follow.
- System: Saccharomyces cerevisiae
- Assay details: protein stability index of tFT-peptide fusion (C-terminal peptide) (PSI (0-1 scale)); higher = more stable (slower turnover)
- Run parameters: genetic background: wild type; temperature: 30 C
Answers are plain numbers.

DLFLTSSCPCLC    0.551
GAVRRWGGVSFV    0.259
PPCPAPLSPPLG    0.676
PPLNPPRSPFSP    0.681
VLRSPHYRPRRE    0.673

// each sequence listed below needs its protein stability index
1. YSIKSTVTYSVH
2. YSTYGGGYFMAF
3. LTARPPTLSSPL
4. RLVFSSCLNALF
5. NKYRKNMKSSVP
6. PPPPPPLVLSPL
7. VCDPWVFIRCLV

1: 0.574; 2: 0.668; 3: 0.673; 4: 0.724; 5: 0.671; 6: 0.678; 7: 0.234

Would you be so kind as to report protein stability index for each listed record?
1. SPLLPFPLPPSI
2. RRAPRQKLIPAK
3. PVLLLLSLPRPL

1: 0.718; 2: 0.677; 3: 0.667
